- Tested on: bermudagrass (Cynodon dactylon)
- PROTOCOL_DESCRIPTION: Test C preemergence
- Format: in vivo
- CONDITION_DESCRIPTION: Rate 62 g/ha; scale 0 to 100, 0 no effect, 100 complete control
MEASURED_ENDPOINT: Plant response rating, Bermudagrass

Before answering, review these 2 worked examples.
# COMPOUND, Plant response rating, Bermudagrass
records = [
    ("O=C1C(n2ccc(C3CCCCC3)n2)OCN1c1cccc(C(F)(F)F)c1 (stereo not drawn) [Compound 51]", 90),
    ("COc1cc(OC)cc(N2CCC(n3ccc(C(C)(C)C)n3)C2=O)c1 (stereo not drawn) [Compound 71]", 30),
]

Please look at the following compound next.
Problem: Which Plant response rating, Bermudagrass value belongs to Cc1ccc(N2CCC(n3ccc(C(C)(C)C)n3)C2=O)cc1OC(F)F (stereo not drawn) [Compound 79] ?
Solution: 100
